GSH [H2S] at peaking time values, listed per item
Assay: Methylene blue experiment for H2S release in PBS buffer in presence of cysteine or GSH
Assay type: physicochemical
Reported conditions: PBS buffer pH 7.4; donor 150 μM; 1.5 mM GSH; experimental period 3 hours
Answer format: number, then unit.

Task item: // lookup GSH [H2S] at peaking time for "CCC(=O)NSC(=O)c1ccccc1"
Reply: 116.6 µM

Now look at this entry.
Task item: Entry under review: "Cc1ccccc1C(=O)SNC(=O)c1ccccc1" . Reported GSH [H2S] at peaking time?
Reply: 61.9 µM

* * *

Assay: Methylene blue experiment for H2S release in PBS buffer in presence of cysteine or GSH
Type: physicochemical
Reported conditions: PBS buffer pH 7.4; donor 150 μM; 1.5 mM GSH; experimental period 3 hours
Recorded GSH Peaking time by entry

The cases that follow already have their GSH Peaking time on record.
Task item: Please look up its GSH Peaking time: O=C(NSC(=O)c1ccc(F)cc1)c1ccccc1 [Compound 3]
Reply: 36 min

Task item: Which GSH Peaking time reading was recorded for the compound COc1ccccc1C(=O)SNC(=O)c1ccccc1 [Compound 9] ?
Reply: 48 min

Task item: Fill in: GSH Peaking time of CC(=O)SNC(=O)c1ccccc1 [Compound 19] is ___
Reply: 18 min

---
Task item: Recorded GSH Peaking time of O=C(NSC(=O)C1CCCCC1)c1ccccc1 [Compound 16] , please.
Reply: 36 min

Task item: Which GSH Peaking time is listed for CC(=O)NC(C(=O)NCc1ccccc1)C(C)(C)SSC(=O)c1ccccc1 (centres unmarked) [Compound 34] ?
Reply: 39 min
